Assay: in vitro
Conditions: human, HepG2 cells; n = 1
Item-by-item account of CC50 at 48 h
QUANTITY_MEASURED: CC50 at 48 h (µM)

SMILES	QUANTITY_MEASURED	RESULT_UNITS	VALUE_MEASURED
COc1ccc(/C=N/Nc2cc(C)nc(-n3nc(C)cc3C)n2)c(OC)c1	CC50 at 48 h	µM	24.3
c1ccc(CCNc2nc(-c3ccccn3)cs2)cc1	CC50 at 48 h	µM	21.7
Cc1nc2ccc(NC(=O)c3cc(S(=O)(=O)N(C)c4ccccc4)ccc3Cl)cc2s1	CC50 at 48 h	µM	9.68
